These data points were gathered from patent US20190352276A1.

# TEST DETAILS: Chemical stability in artificial gastric fluid (SGF without enzymes); also: time not given here
# MEASUREMENT CONDITIONS: 10 μM in SGF without enzymes, pH=1.4, 37° C.
Here, each record is paired with measured Amount of substance in the sample in % (chemical stability) data.
OBSERVATION TYPE: Amount of substance in the sample in % (chemical stability) (%)

COMPOUND	ASSAY RESULT
C=CC(=O)N1CC[C@H](n2nc(-c3ccc(C(=O)Nc4ccccn4)cc3)c3cncc(Cl)c32)C1 [BCD-BTK-273]	100
C=CC(=O)N1CCC[C@@H](n2nc(-c3ccc(C(=O)Nc4cc(C(F)(F)F)ccn4)cc3)c3cncc(Cl)c32)C1 [BCD-BTK -210]	96.1
C=CC(=O)N1CCC[C@@H](n2nc(-c3ccc(-n4ccc(=O)cc4)cc3)c3cc(N)c(C)nc32)C1 [BCD-BTK-119]	100.0
C=CC(=O)N1CCC[C@@H](n2nc(-c3ccc(Oc4cccnc4C#N)cc3)c3cncc(F)c32)C1 [BCD-BTK-230]	99.9
CC#CC(=O)N1CC[C@@H](n2nc(-c3ccc(C(=O)Nc4ccccn4)cc3)c3cncc(Cl)c32)C1 [BCD-BTK-262]	100
C=CC(=O)N1CC[C@@H](n2nc(-c3ccc(Oc4ccncc4)cc3)c3cncc(Cl)c32)C1 [BCD-BTK-272]	100
C=CC(=O)N1CCC[C@@H](n2nc(-c3ccc(Oc4ccncc4)cc3)c3c(N)ncc(OC)c32)C1 [BCD-BTK-239]	100
C=CC(=O)N1CCC[C@@H](n2nc(-c3ccc(C(=O)Nc4cc(C(F)(F)F)ccn4)cc3)c3c(N)ncc(Cl)c32)C1 [BCD-BTK - 251]	100
